# System tested: human BAFF (human, UniProt Q9Y275 82-285, limits assumed)
# Sequence (Q9Y275 82-285 limits assumed): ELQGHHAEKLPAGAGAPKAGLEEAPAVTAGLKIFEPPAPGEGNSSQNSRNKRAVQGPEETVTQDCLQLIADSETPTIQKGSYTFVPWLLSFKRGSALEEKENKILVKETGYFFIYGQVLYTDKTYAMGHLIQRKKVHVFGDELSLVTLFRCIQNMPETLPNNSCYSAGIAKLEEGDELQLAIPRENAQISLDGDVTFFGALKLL
# Assay remarks: NNS library, phage display;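 note: ligand versus display occurrence-to-degeneracy ratio and higher means enriched by binding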
# Description: This new phage library was subjected to sorting against either BAFF, APRIL or the display target antibody. After 3 rounds of sorting, approximately 48 clones were picked from each selection and the DNA sequences of the phage clones were determined. […] The normalized F′ value corrects for display bias and is calculated as the percent occurrence to percent degeneracy ratio for ligand selection divided by the percent occurrence to percent degeneracy ratio for display efficiency. […]
Measured F' BAFF, listed per entry.
Quantity kind: F' BAFF

> print(dat)
                                      binder  reported.result
 1  SLSCRKEQGKFYDHLLYDCISCASICGQHPKQCAYFCENKLR (receptor, phage library variant, format as m9) [TACI_d2 R84Y]                1
 2  SLSCRKEQGKFVDHLLRDCISCASICGQHPKQCAYFCENKLR (receptor, phage library variant, format as m9) [TACI_d2 Y79V]                2
 3  SLSCRKEQGKFYDHLLRDCISCASNCGQHPKQCAYFCENKLR (receptor, phage library variant, format as m9) [TACI_d2 I92N]                0
 4  SLSCRKEQGKFYDHLLDDCISCASICGQHPKQCAYFCENKLR (receptor, phage library variant, format as m9) [TACI_d2 R84D]                0
 5  SLSCRKEQGKEYDHLLRDCISCASICGQHPKQCAYFCENKLR (receptor, phage library variant, format as m9) [TACI_d2 F78E]                5
 6  SLSCRKEQGKFNDHLLRDCISCASICGQHPKQCAYFCENKLR (receptor, phage library variant, format as m9) [TACI_d2 Y79N]                0
 7  SLSCRKEQGKFYDHLLLDCISCASICGQHPKQCAYFCENKLR (receptor, phage library variant, format as m9) [TACI_d2 R84L]                2
 8  SLSCRKEQGKFYDHLLRDCISCASGCGQHPKQCAYFCENKLR (receptor, phage library variant, format as m9) [TACI_d2 I92G]                0
 9  SLSCRKEQGKFMDHLLRDCISCASICGQHPKQCAYFCENKLR (receptor, phage library variant, format as m9) [TACI_d2 Y79M]                0
10  SLSCRKEQGKFYDHLLRDCISCASLCGQHPKQCAYFCENKLR (receptor, phage library variant, format as m9) [TACI_d2 I92L]                0
11  SLSCRKEQGKFYDHLLSDCISCASICGQHPKQCAYFCENKLR (receptor, phage library variant, format as m9) [TACI_d2 R84S]                0
12  SLSCRKEQGKFTDHLLRDCISCASICGQHPKQCAYFCENKLR (receptor, phage library variant, format as m9) [TACI_d2 Y79T]                0
